# METHOD_SUMMARY: Time course of conversion to indirubin in FaSSGF at 37° C.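 Further: compound incubated in fasted state simulated gastric fluid, species in samples quantified by UPLC-MS with UV (210–400 nm) and ELS detection.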
# Format: physicochemical
# MEASUREMENT_PARAMETERS: FaSSGF (Example 4; table title prints FaSSIF) 37° C., 1 h

COMPOUND: CN(C)CCN(C)CN1C(=O)/C(=C2\Nc3ccccc3C2=O)c2ccccc21 [drawing 268]
UNIT_DESCRIPTOR: %
indirubin: 92
//
COMPOUND: O=C1/C(=C2/C(=O)N(CN3CCCC3)c3ccccc32)Nc2ccccc21 [drawing 270]
UNIT_DESCRIPTOR: %
indirubin: 100
//
COMPOUND: CCN(CC)CN1C(=O)/C(=C2\Nc3ccccc3C2=O)c2ccccc21 [drawing 267]
UNIT_DESCRIPTOR: %
indirubin: 100
//
COMPOUND: CN(C)CCN(CCN(C)C)CN1C(=O)/C(=C2\Nc3ccccc3C2=O)c2ccccc21 [drawing 271]
UNIT_DESCRIPTOR: %
indirubin: 87
//
COMPOUND: O=C1/C(=C2/C(=O)N(CN3CCCCC3)c3ccccc32)Nc2ccccc21 [drawing 269]
UNIT_DESCRIPTOR: %
indirubin: 99
//
COMPOUND: O=C1/C(=C2/C(=O)N(CN3CCOCC3)c3ccccc32)Nc2ccccc21 [drawing 276]
UNIT_DESCRIPTOR: %
indirubin: 10
//
COMPOUND: O=C1/C(=C2/C(=O)N(C(=O)NC3CCOCC3)c3ccccc32)Nc2ccccc21 [drawing 278]
UNIT_DESCRIPTOR: %
indirubin: 11
